# system_under_test: Phosphodiesterase 3 (Homo sapiens, UniProt Q14432+Q13370)
# assay_explanation: Inhibition of cAMP PDE 3
# Assay type: protein assay
Strictly below 200 nM in IC50: criterion met. Otherwise: criterion not met.

[[record]]
smiles_input = "Oc1ccc(-c2nccc3nc4nc(O)sc4cc23)cc1"
system_under_test = "Phosphodiesterase 3 (Homo sapiens, UniProt Q14432+Q13370)"
assigned_class = "criterion not met"


Q: Threshold test, IC50 < 200 nM: Oc1nc2nc3ccnc(-c4ccccc4)c3cc2s1
A: criterion not met

Q: Dear colleague, could you confirm whether IC50 of CC(C)Cc1nccc2nc3nc(O)sc3cc12 falls below 200 nM? Thanks.
A: criterion not met

Q: hey, is IC50 for O=[N+]([O-])c1cc(-c2nccc3nc4nc(O)sc4cc23)ccc1O lower than 200 nM or not?
A: criterion met

Q: Strictly below 200 nM in IC50? Cc1nccc2nc3nc(O)sc3cc12
A: criterion met

Q: Given the entry CCc1nccc2nc3nc(O)sc3cc12 , would its reported IC50 be below 200 nM?
A: criterion met

Q: Threshold test, IC50 < 200 nM: CCCc1nccc2nc3nc(O)sc3cc12
A: criterion met

Where do these numbers come from? They come from ChEMBL document CHEMBL1128685.
